# SYSTEM: Rap guanine nucleotide exchange factor 3 (Homo sapiens) (UniProt O95398)
# Sequence (O95398 whole entry, looked up): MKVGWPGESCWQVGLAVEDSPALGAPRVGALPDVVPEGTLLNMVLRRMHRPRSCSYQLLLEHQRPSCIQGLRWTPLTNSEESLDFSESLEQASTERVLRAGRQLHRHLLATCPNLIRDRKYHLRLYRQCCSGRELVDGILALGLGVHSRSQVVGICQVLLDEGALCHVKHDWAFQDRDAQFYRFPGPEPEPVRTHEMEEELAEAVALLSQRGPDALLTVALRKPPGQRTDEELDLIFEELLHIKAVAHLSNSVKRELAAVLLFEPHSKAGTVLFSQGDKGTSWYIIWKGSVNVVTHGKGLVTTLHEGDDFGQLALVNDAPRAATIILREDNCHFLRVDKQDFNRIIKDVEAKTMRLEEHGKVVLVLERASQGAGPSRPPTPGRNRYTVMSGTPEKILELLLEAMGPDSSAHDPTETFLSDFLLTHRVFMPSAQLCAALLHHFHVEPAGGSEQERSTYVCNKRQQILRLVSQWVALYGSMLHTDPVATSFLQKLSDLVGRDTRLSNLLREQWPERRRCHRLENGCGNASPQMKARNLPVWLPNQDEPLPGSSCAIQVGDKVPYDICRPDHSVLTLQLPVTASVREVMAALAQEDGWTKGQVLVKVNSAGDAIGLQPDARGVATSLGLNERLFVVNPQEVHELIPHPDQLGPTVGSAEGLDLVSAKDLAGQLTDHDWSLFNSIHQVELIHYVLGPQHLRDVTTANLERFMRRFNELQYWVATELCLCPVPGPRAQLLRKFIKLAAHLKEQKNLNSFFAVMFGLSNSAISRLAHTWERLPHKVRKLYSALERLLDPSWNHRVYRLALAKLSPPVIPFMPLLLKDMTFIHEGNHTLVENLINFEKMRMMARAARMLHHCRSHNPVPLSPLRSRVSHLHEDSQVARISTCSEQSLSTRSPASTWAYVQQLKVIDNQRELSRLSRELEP
# EXPERIMENT: Confirmatory qHTS for antagonist of cAMP-regulated guanine nucleotide exchange factor 3 (EPAC1) (AID 1645880); further: nearly all actives have a fitted effect of over 55% in size; further: potency means the concentration at half of the fitted maximal effect
# EXPERIMENTAL CONDITIONS: EPAC1 Rap1B-BODIPY-GDP exchange, fluorescence
Results filed as inconclusive are left out. Active and inactive are the calls of the source. The call rests on the fitted dose curve; in most records, active means well fitted inhibition curve with a large enough effect; inconclusive means small, poorly fitted or top-dose-only effect; inactive means no such curve, though single readings can be large or run the other way.
OBSERVABLE: Potency

Cn1c(=O)c(N)c2c3c(c(Br)ccc31)C(=O)c1ccccc1-2	26.9 µM (active)
Cc1cc(Nc2ccccc2)c2c([N+](=O)[O-])ccc(C)c2n1	inactive
CNC(=O)COC(=O)c1cc(-c2ccco2)nc2ccccc12	23.9 µM (active)
O=C(O)c1ccc2c(c1)C(=O)N(c1ccc(/C=C/C(=O)c3ccccc3)cc1)C2=O	39.8 µM (active)
CC(C)N1CCc2c(sc(NC(=O)c3ccc(C(=O)c4ccccc4)cc3)c2C(N)=O)C1	inactive
CC1=NOC(=O)/C1=C\c1ccc(-c2ccccc2Br)o1	21.3 µM (active)

The compound COc1ccc(N=Nc2nc3cc(Br)c(Br)cc3n2C)c(OC)c1 showed Potency equal to inactive

The compound Cc1cc(-c2ccc(F)cc2)n2ncc(-c3ccccc3)c2n1 showed Potency equal to inactive

The compound CCOC(=O)c1cc2c(ccn2C)n1Cc1ccccc1Cl showed Potency equal to inactive

The compound CN(C)c1ccc(/C=C(\C#N)c2ccccn2)cc1 showed Potency equal to inactive

The compound CCNc1ncc2nc(-c3cccs3)c(=O)n(CCC#N)c2n1 showed Potency equal to inactive

The compound CCOc1ccccc1NC(=O)N1CCC(N2CCN(Cc3ccccc3)C(=O)C2=O)CC1 showed Potency equal to inactive

---

# SYSTEM: Rap guanine nucleotide exchange factor 3 (Homo sapiens)
# EXPERIMENT: Counterscreen qHTS for antagonist of cAMP-regulated guanine nucleotide exchange factor 3 (EPAC1) (AID 1645888);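 further: fluorescence loss as bound BODIPY-GDP is released from Rap1B; % of control where 0% means no effect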
# EXPERIMENTAL CONDITIONS: Rap1B-BODIPY-GDP nucleotide exchange, fluorescence; series mostly up to 154 µM
Records with an inconclusive call do not appear. Calls of active or inactive are those of the source. The call rests on the fitted dose curve; in most records, active means well fitted inhibition curve with a large enough effect; inconclusive means small, poorly fitted or top-dose-only effect; inactive means no such curve, though single readings can be large or run the other way.
OBSERVABLE: activity change, negative = inhibition

Answered cases to consult:
CCc1ccccc1NC1c2ccccc2C(=O)N1Cc1ccco1 (stereo unspecified)	-4.2% [at 30.8 µM] (inactive)
CCC(=O)N(CCC(c1ccccc1)c1ccc2c(c1)OCO2)Cc1ccc(OC(C)C)cc1 (stereo unspecified)	inactive
Cc1nnc(N2CCC(C(=O)NC3CCCCC3)CC2)c2nn(-c3ccccc3)c(C)c12	inactive
COc1cccc(C(=O)Nc2nnc(-c3ccccc3)s2)c1OC	inactive
O=C1CC2(CCCCC2)Oc2ccc(F)cc21	inactive
Cc1ccc(S(=O)(=O)Nc2ccc(S(=O)(=O)Nc3nccs3)cc2)cc1C	inactive
CCOC(=O)/C(C#N)=C\c1ccc(N2CCN(C/C=C/c3ccccc3)CC2)cc1	inactive
Cn1cccc1C(=O)NC(=O)COC(=O)c1ccc(S(C)(=O)=O)c([N+](=O)[O-])c1	-20.5% [at 30.8 µM] (inactive)
Cc1nnc(SCC(=O)Nc2sccc2C#N)s1	inactive
Cc1ccc(S(=O)c2ccc([N+](=O)[O-])c3nonc23)cc1 (stereo unspecified)	inactive

Noted activity change, negative = inhibition for CC(=O)Nc1cccc(C(=O)/C=C/c2ccc(F)cc2)c1 , tested on Rap guanine nucleotide exchange factor 3 (Homo sapiens): inactive

---

Quick reference: activity of the listed items.
# SYSTEM: Nicotinamide N-methyltransferase (Homo sapiens) (UniProt P40261)
# Sequence (P40261 whole entry, looked up): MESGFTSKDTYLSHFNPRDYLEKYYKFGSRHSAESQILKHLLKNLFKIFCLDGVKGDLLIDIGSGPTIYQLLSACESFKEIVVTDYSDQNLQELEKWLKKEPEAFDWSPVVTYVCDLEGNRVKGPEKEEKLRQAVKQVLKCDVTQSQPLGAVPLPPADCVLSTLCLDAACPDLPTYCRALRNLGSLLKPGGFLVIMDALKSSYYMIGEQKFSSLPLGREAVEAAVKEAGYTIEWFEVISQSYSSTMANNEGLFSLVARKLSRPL
# EXPERIMENT: Confirmatory Screen for Target Class Profiling of Small Molecule Inhibitors of Methyltransferases (AID 1745852)
# EXPERIMENTAL CONDITIONS: MTase-Glo luminescence, SAH detection, recombinant enzyme; measured here: NNMT max response; stronger effect = lower value
API: value field is a number in %; no unit string.

CC(C)c1ccc(NC(=O)Cn2c(=O)oc3cc(S(=O)(=O)NCc4ccccc4)ccc32)cc1	-3.77

The compound COc1ccccc1N1CCN(S(=O)(=O)c2cccc3c2C(=O)c2ccccc2C3=O)CC1 showed activity equal to -1.31

The compound COc1ccc(CN2C[C@@H](CO)[C@H](c3ccncc3)C2)c(OC)c1 showed activity equal to -21.3

The compound CCCn1c(=O)c2ccccc2n2c(=O)n(CC(=O)c3cccc(Cl)c3)nc12 showed activity equal to -46.1

The compound CCN1CCN(c2nc3c(S(=O)(=O)c4ccc(C)cc4)nnn3c3ccccc23)CC1 showed activity equal to -16.7

The compound N#Cc1cc(CN2CCCC(C(=O)Nc3cccc(-c4ccc(F)cc4)c3)C2)c[nH]1 (centres undefined) showed activity equal to -14.2

---

# SYSTEM: Rap guanine nucleotide exchange factor 3 (Homo sapiens)
# EXPERIMENT: Counterscreen qHTS for agonist of cAMP-regulated guanine nucleotide exchange factor 3 (EPAC1) (AID 1645889); further: % of control where 0% means no effect; nearly all actives have a fitted effect of over 40% in size
# EXPERIMENTAL CONDITIONS: EPAC1 Rap1B-BODIPY-GDP exchange, fluorescence; series mostly up to 154 µM
# Description: Assay Provider (PI): Xiaodong Cheng Ph.D. The University of Texas Medical Branch, […], TX MLPCN Grant: NS066510 In multi-cellular eukaryotic organisms, the effects of cAMP are transduced by two ubiquitously-expressed intracellular cAMP receptors, the classic protein kinase A/cAMP-dependent protein kinase (PKA/cAPK) and the more recently discovered exchange protein directly activated by cAMP/cAMP-regulated guanine nucleotide exchange factor (EPAC/cAMP-GEF). […]
Results filed as inconclusive are left out. The source made the active and inactive calls. Calls come from the whole dose curve; as a rule, active = well fitted activation curve with a large enough effect; inconclusive = small, poorly fitted or top-dose-only effect, or another doubt; inactive = no such curve, though single readings can be large or run the other way.
OBSERVABLE: activation

Answered cases to consult:
COc1cc(OC)cc(-c2cc3ccc(OC)cc3cn2)c1	inactive
O=C(N/N=C/c1c(O)n(-c2ccccc2Cl)c(=O)c2ccccc12)C1COc2ccccc2O1 (stereo not drawn)	inactive
O=C1COc2ccc(C(=O)COC(=O)c3ccc4ccccc4n3)cc2N1	inactive
Cc1ccc([N+](=O)[O-])cc1S(=O)(=O)N1CCC(C)CC1	inactive
COc1ccc(C2CC2/C(=N/O)c2ccccn2)cc1 (stereo not drawn)	inactive
COC(=O)c1nn(-c2ccccc2)c(Sc2ccc(OC)cc2)c1/C=N/O	23% [at 30.8 µM] (inactive)

The compound CCOc1cc(/C=C2/SC(=S)N(CC(=O)O)C2=O)ccc1OC(=O)c1cccs1 showed activation equal to inactive

The compound CCCN1C(=O)c2ccccc2NC1c1ccc(OC)c(CSc2ccccn2)c1 (stereo not drawn) showed activation equal to inactive

The compound O=C(NCC(c1ccco1)N1CCCCC1)c1cccc(NS(=O)(=O)c2ccc(Br)cc2)c1 (stereo not drawn) showed activation equal to 29.4% [at 30.8 µM] (inactive)

The compound COC(=O)C1=C(C)N(Cc2ccco2)C(=O)N[C@H]1c1cccc(C(F)(F)F)c1 showed activation equal to inactive

The compound Cn1cc(/C=C/c2cc[n+](C)cc2)c2cc(F)ccc21 showed activation equal to inactive

The compound CCOC(=O)C1=C(CC)OC(N)=C(C#N)C1c1ccc(OC)c(OC)c1OC (stereo not drawn) showed activation equal to 8.26% [at 30.8 µM] (inactive)

The compound C=CC(C)N1C(=O)S/C(=C\c2ccc(N3CCOCC3)cc2C)C1=O (stereo not drawn) showed activation equal to inactive

---

# SYSTEM: Rap guanine nucleotide exchange factor 4 (Homo sapiens)
# EXPERIMENT: Confirmatory qHTS for agonist of cAMP-regulated guanine nucleotide exchange factor 4 (EPAC2) (AID 1645884);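 further: nucleotide exchange releases bodipy-GDP from Rap1 and this lowers its fluorescence; potency means the concentration at half of the fitted maximal effect; nearly all actives have a fitted effect of over 65% in size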
# EXPERIMENTAL CONDITIONS: EPAC2 GEF activity, Rap1B-BODIPY-GDP fluorescence; series mostly up to 154 µM
Results filed as inconclusive are left out. Active and inactive are the calls of the source. The call rests on the fitted dose curve; in most records, active means well fitted activation curve with a large enough effect; inconclusive means small, poorly fitted or top-dose-only effect; inactive means no such curve, though single readings can be large or run the other way.
Quick reference: Potency of the listed items.

Answered cases to consult:
COc1cc(OC)c(-c2c3cc(O)c(=O)cc-3oc3cc(O)c(O)cc23)cc1OC	100 µM (active)
Cc1cccc(C)c1NC(=O)CN1C(=O)S/C(=C\c2cccn2-c2cccc(C(=O)O)c2)C1=O	100 µM (active)
O=C(N/N=C/c1ccccc1Cl)c1[nH]c2ccc(Br)cc2c1-c1ccccc1	126 µM (active)
COC(=O)c1cc(C(=O)c2ccc(Cl)cc2)n2c(=O)/c(=C\N(C)C)sc12	100 µM (active)

The compound CCN(CC)C1=CC2=CC(=C(C#N)C#N)CCC2CC1 (stereo not given) showed Potency equal to 112 µM (active)

---

# EXPERIMENT: qHTS assay to identify small molecules that stimulate interleukin-8 (IL-8) secretion (AID 651758); on activation: 0% is about no effect
# EXPERIMENTAL CONDITIONS: HTRF ratio (665/615); series mostly up to 92.2 µM
Results filed as inconclusive are left out. Activity calls are given as the source filed them. Calls come from the whole dose curve; as a rule, active = well fitted activation curve with a large enough effect in the signal ratio; inconclusive = small, poorly fitted or top-dose-only effect, or effect the other way, or a change in a side signal; inactive = flat fitted curve, though single readings scatter; the % refers to the signal ratio.
Just give me one of these, please: active, inactive

Look over these answered cases.
CC1=CC(C)(C)Nc2ccccc21	inactive
Cc1ccc([N+](=O)[O-])c(C)c1	inactive
C=Cc1ccccc1Cl	inactive
C1OCOCO1	active
Clc1cc(Cl)c(Cl)c(Cl)c1Cl	inactive

Could you kindly confirm the outcome this assay logged for CCC(O)OC(O)CC (stereo unspecified) ?
inactive

Could you kindly confirm the outcome this assay logged for S=C1NC=NC2N=CNC12 (stereo unspecified) ?
active

Could you kindly confirm the outcome this assay logged for CN(C)C=O ?
inactive

Could you kindly confirm the outcome this assay logged for CCO ?
inactive

Could you kindly confirm the outcome this assay logged for Cc1cccc([N+](=O)[O-])c1C ?
inactive

Could you kindly confirm the outcome this assay logged for COC(=O)CCCCC(=O)OC ?
inactive
